assay: Single dose oral bioavailability and pharmacokinetic study in Sprague Dawley rats; assay type: in vivo, Sprague Dawley rat; details: Sprague Dawley (Crl:CD(SD)BR), rat; male rats; plasma; mean; after single oral 30 mg/kg of Example 1; label = analyte
Readout Kind: AUC(0-t) (ng·h/mL)

[[record]]
molecule = "CN1CCN2c3c(cccc31)[C@@H]1CN(CCCC(O)c3ccc(F)cc3)CC[C@@H]12 (stereo partly drawn) [Example 1]"
readout_kind = "AUC(0-t)"
measured_value = 421

[[record]]
molecule = "CN1CCN2c3c(cccc31)[C@@H]1CN(CCCC(=O)c3ccc(F)cc3)CC[C@@H]12"
readout_kind = "AUC(0-t)"
measured_value = 54.5

[[record]]
molecule = "O=C(CCCN1CC[C@H]2[C@@H](C1)c1cccc3c1N2CCN3)c1ccc(F)cc1"
readout_kind = "AUC(0-t)"
measured_value = 37.4


Hey, just so you know, these numbers are from patent US9371324B2.
